Cited source: paper PMC8958504

assay: in vitro; type: in vitro ADME; details: PAMPA, pH 7.4, porcine brain lipid, PBS/EtOH (70:30), 240 min, 25 °C; read-out: PAMPA-BBB
quantity kind: Papp at 240 min, 100 μg mL^–1

Input line: State the recorded Papp at 240 min, 100 μg mL^–1 for this entry: C#CCNC(=O)/C=C/c1ccc(O)c(OC)c1 [6n]
Output line: < 2 ×10⁻⁶ cm/s

---

Target: UniProt P27338
Sequence (P27338 1-520): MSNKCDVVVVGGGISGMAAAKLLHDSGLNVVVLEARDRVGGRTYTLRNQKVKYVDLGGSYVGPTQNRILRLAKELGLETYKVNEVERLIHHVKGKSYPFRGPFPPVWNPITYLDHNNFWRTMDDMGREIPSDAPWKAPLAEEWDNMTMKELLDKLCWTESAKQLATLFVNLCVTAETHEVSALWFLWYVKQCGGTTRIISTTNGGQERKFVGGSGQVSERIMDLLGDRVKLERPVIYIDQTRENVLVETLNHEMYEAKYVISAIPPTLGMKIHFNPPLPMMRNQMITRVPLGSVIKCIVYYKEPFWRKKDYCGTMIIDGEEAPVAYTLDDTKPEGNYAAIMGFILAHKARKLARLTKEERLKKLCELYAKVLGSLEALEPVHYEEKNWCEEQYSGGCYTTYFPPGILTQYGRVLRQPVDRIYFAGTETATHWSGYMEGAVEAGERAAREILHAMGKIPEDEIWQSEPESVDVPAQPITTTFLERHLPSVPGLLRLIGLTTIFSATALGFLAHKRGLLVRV
Assay: biochemical
Conditions: read-out: hMAO-B percentage of inhibition (in brackets)
quantity kind: inhibition at 50 µM (%)
Answers are plain numbers, in %.

| molecular string | scale unit | observed |
| --- | --- | --- |
| C#CCNC/C=C/c1ccc(O)c(OC)c1 | % | 45 |

// input: 5 compounds below; output: inhibition at 50 µM for each
1. C#CCNC(=O)/C=C/c1ccc(O)c(O)c1
2. N#Cc1cccc(/C=C/c2n[nH]c(=O)o2)c1
3. COc1ccc(/C=C/c2n[nH]c(=O)o2)cc1
4. COc1cccc(/C=C/c2n[nH]c(=O)o2)c1
5. C#CCNC(=O)/C=C/c1ccc(O)c(OC)c1

Output line:
[48, 38, 42, 33, 33]

---

experiment: Oxygen radical absorbance capacity (ORAC-FL) assay; details: trolox = 1.0
Please provide measured ORAC (trolox equiv) for the entries that follow.
One number for each entry, in trolox equiv.

These solved cases illustrate the format of a correct answer.
| molecular string | observed |
| --- | --- |
| C#CCNC(=O)/C=C/c1ccc(O)cc1 | 3.0 |
| C#CCn1nc(/C=C/c2cccc(O)c2)oc1=O | 2.7 |
| O=c1[nH]nc(/C=C/c2cc(O)cc(O)c2)o1 | 1.9 |
| COc1ccc(/C=C/c2n[nH]c(=O)o2)c(OC)c1 | 0.6 |

Let's switch to this compound now.
Input line: State the recorded ORAC (trolox equiv) for this entry: C#CCNC/C=C/c1ccc(O)c(OC)c1
Output line: 2.1

---

Target: QR2 (Mesocricetus auratus, UniProt A0ABM2YAB8)
Sequence (A0ABM2YAB8 1-231): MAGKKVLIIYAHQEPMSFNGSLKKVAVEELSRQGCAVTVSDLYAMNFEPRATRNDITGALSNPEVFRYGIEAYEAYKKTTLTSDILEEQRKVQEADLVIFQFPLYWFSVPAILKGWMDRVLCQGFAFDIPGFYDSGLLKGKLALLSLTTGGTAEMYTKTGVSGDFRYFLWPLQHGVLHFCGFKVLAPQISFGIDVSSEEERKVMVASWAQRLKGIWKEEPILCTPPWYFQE
Assay: biochemical
Settings: read-out: QR2 percentage of inhibition (in brackets)
quantity kind: inhibition at 10 µM

These solved cases illustrate the format of a correct answer.
| compound | quantity kind | observed |
| --- | --- | --- |
| COc1ccc(/C=C/c2n[nH]c(=O)o2)cc1 [2e] | inhibition at 10 µM | 68% |
| C#CCNC(=O)/C=C/c1cccc(OC)c1 [6d] | inhibition at 10 µM | 76% |
| O=c1[nH]nc(/C=C/c2cccc([N+](=O)[O-])c2)o1 [2c] | inhibition at 10 µM | 56% |

// input: 2 compounds below; output: inhibition at 10 µM for each
1. C#CCn1nc(/C=C/c2ccccc2)oc1=O [4a]
2. COc1cccc(/C=C/c2n[nH]c(=O)o2)c1 [2d]

Output line:
44%
76%

---

test: in vitro; type: in vitro ADME; settings: PAMPA, pH 7.4, class from PAMPA-BBB Pe; read-out: CNS-permeability prediction
quantity kind: Papp at 240 min, 100 μg mL^–1

| molecular string | quantity kind | observed |
| --- | --- | --- |
| C#CCNC/C=C/c1ccc(O)c(OC)c1 | Papp at 240 min, 100 μg mL^–1 | > 4 ×10⁻⁶ cm/s |
| O=c1[nH]nc(/C=C/c2ccc3c(c2)OCO3)o1 | Papp at 240 min, 100 μg mL^–1 | 2 to 4 ×10⁻⁶ cm/s |
| C#CCNC(=O)/C=C/c1cccc(OC)c1 | Papp at 240 min, 100 μg mL^–1 | > 4 ×10⁻⁶ cm/s |

Let's switch to this compound now.
Input line: State the recorded Papp at 240 min, 100 μg mL^–1 for this entry: C#CCn1nc(/C=C/c2ccc(OC)cc2)oc1=O
Output line: > 4 ×10⁻⁶ cm/s

---

biological target: hMT2R (Homo sapiens, UniProt P49286); assay: hMT2R radioligand displacement in transfected CHO cells; conditions: read-out: hMT2R binding affinity (Ki)
Sequence (P49286 whole entry): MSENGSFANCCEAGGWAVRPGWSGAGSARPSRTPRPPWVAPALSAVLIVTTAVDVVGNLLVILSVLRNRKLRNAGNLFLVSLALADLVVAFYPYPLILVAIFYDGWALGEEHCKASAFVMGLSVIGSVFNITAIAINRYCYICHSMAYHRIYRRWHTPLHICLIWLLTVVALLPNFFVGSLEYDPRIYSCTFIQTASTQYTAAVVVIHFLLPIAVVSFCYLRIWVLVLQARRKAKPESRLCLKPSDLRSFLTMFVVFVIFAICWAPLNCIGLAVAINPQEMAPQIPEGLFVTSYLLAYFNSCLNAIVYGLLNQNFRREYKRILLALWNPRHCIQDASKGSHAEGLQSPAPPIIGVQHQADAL
quantity kind: Ki (nM)
Answers are plain numbers, in nM.

Input line: State the recorded Ki for this entry: C#CCNC(=O)/C=C/c1cccc(OC)c1
Output line: 1400

---

Please provide measured IC50 for the entries that follow.
target: UniProt P27338; experiment: biochemical; conditions: read-out: hMAO-B (IC50); recombinant hMAO-B, p-tyramine substrate

These solved cases illustrate the format of a correct answer.
| molecular string | observed |
| --- | --- |
| C#CCn1nc(/C=C/c2cccc(O)c2)oc1=O | 3.53 µM |
| C#CCNC(=O)/C=C/c1cccc(OC)c1 | > 50 µM |
| COc1ccc(/C=C/c2n[nH]c(=O)o2)cc1 | > 50 µM |
| N#Cc1cccc(/C=C/c2n[nH]c(=O)o2)c1 | > 50 µM |

// input: 2 compounds below; output: IC50 for each
1. COc1cc(/C=C/c2n[nH]c(=O)o2)cc(OC)c1
2. COc1cccc(/C=C/c2n[nH]c(=O)o2)c1

Output line:
["> 50 µM", "> 50 µM"]

---

Please provide measured Papp at 240 min, 100 μg mL^–1 for the entries that follow.
experiment: in vitro; assay type: in vitro ADME; conditions: PAMPA, pH 7.4, class from PAMPA-BBB Pe; read-out: CNS-permeability prediction

These solved cases illustrate the format of a correct answer.
| molecular string | Papp at 240 min, 100 μg mL^–1 |
| --- | --- |
| C#CCn1nc(/C=C/c2cccc(O)c2)oc1=O | > 4 ×10⁻⁶ cm/s |
| COc1ccc(OC)c(/C=C/c2n[nH]c(=O)o2)c1 | 2 to 4 ×10⁻⁶ cm/s |
| COc1ccc(/C=C/c2n[nH]c(=O)o2)cc1OC | 2 to 4 ×10⁻⁶ cm/s |
| COc1cc(/C=C/c2n[nH]c(=O)o2)cc(OC)c1OC | < 2 ×10⁻⁶ cm/s |
| C#CCNC(=O)/C=C/c1ccc(O)c(OC)c1 | < 2 ×10⁻⁶ cm/s |

Let's switch to this compound now.
Input line: State the recorded Papp at 240 min, 100 μg mL^–1 for this entry: N#Cc1cccc(/C=C/c2n[nH]c(=O)o2)c1
Output line: > 4 ×10⁻⁶ cm/s

---

assay: in vitro; type: in vitro ADME; settings: porcine brain lipid, PBS/EtOH (70:30), 240 min, 25 °C
Please provide measured PAMPA-BBB (Pe, 10^–6 cm s^–1) for the entries that follow.

These solved cases illustrate the format of a correct answer.
| molecule | observed |
| --- | --- |
| COc1cc(/C=C/c2n[nH]c(=O)o2)cc(OC)c1OC [2k] | ≤ 0.5 10^–6 cm s^–1 |
| N#Cc1cccc(/C=C/c2n[nH]c(=O)o2)c1 [2b] | 4.5 ± 0.3 10^–6 cm s^–1 |
| O=c1[nH]nc(/C=C/c2ccc(O)cc2)o1 [3m] | ≤ 0.7 10^–6 cm s^–1 |
| O=c1[nH]nc(/C=C/c2cccc([N+](=O)[O-])c2)o1 [2c] | 4.7 ± 0.2 10^–6 cm s^–1 |
| COc1ccc(OC)c(/C=C/c2n[nH]c(=O)o2)c1 [2g] | 3.0 ± 0.2 10^–6 cm s^–1 |
| O=c1[nH]nc(/C=C/c2ccc(O)c(O)c2)o1 [3o] | ≤ 0.2 10^–6 cm s^–1 |

// input: 6 molecules below; output: PAMPA-BBB (Pe, 10^–6 cm s^–1) for each
1. COc1cc(/C=C/c2n[nH]c(=O)o2)cc(OC)c1 [2j]
2. C#CCNC(=O)/C=C/c1ccc(O)c(O)c1 [6o]
3. O=c1[nH]nc(/C=C/c2ccc3c(c2)OCO3)o1 [2i]
4. C#CCn1nc(/C=C/c2ccc(OC)cc2)oc1=O [4e]
5. COc1ccc(/C=C/c2n[nH]c(=O)o2)cc1 [2e]
6. COc1ccc(/C=C/c2n[nH]c(=O)o2)cc1OC [2h]

Output line:
["2.1 ± 0.2 10^–6 cm s^–1", "≤ 0.4 10^–6 cm s^–1", "3.8 ± 0.2 10^–6 cm s^–1", "8.0 ± 0.5 10^–6 cm s^–1", "6.5 ± 0.5 10^–6 cm s^–1", "2.4 ± 0.3 10^–6 cm s^–1"]
